target: PPARδ (Homo sapiens); construct: expressed in transfected cells; host or cells: PathHunter NHR cell lines; experiment: Nuclear Hormone Receptor (NHR) protein interaction assay (PathHunter), agonist format; assay type: cell-based; conditions: Tables 7-16; read-out: NHR protein interaction assay, EC50 (nM) for PPARδ
Measured Attribute: EC50 (nM)

I: CC(C)N(Cc1ccccc1OCCCCCC(=O)O)C(=O)c1ccc(OC(F)(F)F)cc1
II: CC(C)N(Cc1ccccc1OCCCCCC(=O)O)C(=O)c1ccc(N2CCCC2)cc1
III: CC(C)N(Cc1ccccc1OCCCCCC(=O)O)C(=O)c1ccc(F)cc1
IV: CC(C)N(Cc1ccccc1OCCCCCC(=O)O)C(=O)c1ccc(C#N)cc1
[Q] Which order do the items above take when sorted by EC50 from high to low? Please, when replying, give the labels in the order that was requested.
[A] III, IV, II, I

I: CC(C)N(Cc1ccccc1OCCCCCC(=O)O)C(=O)c1ccc(C#CC2CC2)cc1
II: O=C(O)CCCCCOc1ccccc1CN(Cc1ccccc1)C(=O)c1ccc(-c2ccco2)cc1
[Q] Name the one with the greater EC50 value, either I or II as given. Answer format: the label of the selected item.
[A] II
(II: 18.8 nM, I: 10.5 nM)

---

target: PPARδ (Homo sapiens); construct: expressed in transfected cells; host or cells: PathHunter NHR cell lines; experiment: Nuclear Hormone Receptor (NHR) protein interaction assay (PathHunter), agonist format; type: cell-based
pEC50: −log10 of the molar value.
Measured Attribute: pEC50

Worked examples, 3 molecules total:
CC(C)N(Cc1cccnc1OCCCCCC(=O)O)C(=O)c1ccc(-c2ccco2)cc1; 7.71
O=C(O)CCCCCOc1ccccc1CNC(=O)c1ccc(-c2ccco2)cc1; 6.31
CC(C)N(Cc1cc(C#N)ccc1OCCCCCC(=O)O)C(=O)c1ccc(-c2ccco2)cc1; 6.65

a: COCCN(Cc1ccccc1OCCCCCC(=O)O)C(=O)c1ccc(-c2ccco2)cc1
b: CC(C)N(Cc1ccccc1OCCCCCC(=O)O)C(=O)c1ccc(-c2ccco2)nc1
c: CC(C)N(Cc1ccccc1OCCCCc1nn[nH]n1)C(=O)c1ccc(-c2ccco2)cc1
[Q] List the 3 entries from lowest pEC50 to highest pEC50 value. Please, when replying, give the labels in the order that was requested.
[A] c, a, b
(c: 6.47, a: 7.10, b: 7.58)

---

Molecular target: PPARδ (Homo sapiens)
Construct: expressed in transfected cells; host or cells: PathHunter NHR cell lines
Sequence (Q03181 1-441): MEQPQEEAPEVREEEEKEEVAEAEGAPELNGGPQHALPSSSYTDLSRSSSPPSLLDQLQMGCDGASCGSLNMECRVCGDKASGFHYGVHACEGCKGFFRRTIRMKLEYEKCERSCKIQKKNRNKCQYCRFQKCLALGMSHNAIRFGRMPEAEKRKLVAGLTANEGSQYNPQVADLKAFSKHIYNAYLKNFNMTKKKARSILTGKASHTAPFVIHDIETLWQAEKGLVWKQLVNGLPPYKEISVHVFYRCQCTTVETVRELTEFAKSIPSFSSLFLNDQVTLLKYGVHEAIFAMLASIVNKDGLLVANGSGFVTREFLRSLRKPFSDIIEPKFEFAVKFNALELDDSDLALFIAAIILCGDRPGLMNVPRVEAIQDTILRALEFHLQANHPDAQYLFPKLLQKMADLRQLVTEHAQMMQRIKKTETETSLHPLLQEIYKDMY
Assay: Nuclear Hormone Receptor (NHR) protein interaction assay (PathHunter), agonist format
Format: cell-based
Details: Tables 7-16; read-out: NHR protein interaction assay, EC50 (nM) for PPARδ
Measured Attribute: EC50 (nM)

CC(C)N(Cc1ccccc1OCCCCCC(=O)O)C(=O)c1ccc(Cl)cc1; 291
CC(=O)c1ccc(C(=O)N(Cc2ccccc2OCCCCCC(=O)O)C(C)C)cc1; 5070
CN(Cc1ccccc1OCCCCCC(=O)O)C(=O)c1ccc(C#CC2CC2)cc1; 21.1
COc1ccc(OCCCCCC(=O)O)c(CN(C(=O)c2ccc(-c3ccco3)cc2)C(C)C)c1; 5.1

P: COc1ccc(C(=O)N(Cc2ccccc2OCCCCCC(=O)O)C(C)C)cc1
Q: Cc1ccc(OCCCCCC(=O)O)c(CN(C(=O)c2ccc(-c3ccco3)cc2)C(C)C)c1
[Q] Hello, I am sorting some records. Could you say if P or Q has the smaller EC50 value? Answer format: the label of the selected item.
[A] Q
